# pIC50 against High affinity nerve growth factor receptor (Homo sapiens, UniProt P04629), merged from multiple literature sources
pIC50: −log10 of the molar value.

Examples with their reported pIC50 follow.
{"columns": ["compound", "experimental_target", "pIC50"],
 "data": [
  ["Cc1ncc(-c2nc(-c3ccccc3)c(NC(=O)N[C@@H]3c4cc(F)c(F)cc4C(C)(C)C[C@H]3O)cc2C)s1 (racemic)", "High affinity nerve growth factor receptor (Homo sapiens, UniProt P04629)", "6.00 to 7.30"],
  ["Cc1nn(-c2ccccc2)c(NC(=O)N[C@@H]2CN(c3cn[nH]c3)C[C@H]2c2ccc(F)c(F)c2)c1C", "High affinity nerve growth factor receptor (Homo sapiens, UniProt P04629)", "> 7.00"],
  ["COc1cc2nccc(Oc3ccc(NC(=O)c4cccn(-c5ccc(F)cc5)c4=O)c(Cl)c3)c2c2c1OCCO2", "High affinity nerve growth factor receptor (Homo sapiens, UniProt P04629)", "> 7.30"],
  ["COCCN1C[C@@H](NC(=O)Nc2c(Br)c(COC)nn2-c2ccccc2)[C@H](c2ccc(F)c(F)c2)C1", "High affinity nerve growth factor receptor (Homo sapiens, UniProt P04629)", "> 7.00"],
  ["CCOc1cc(-n2cnc3ccc(N[C@@H](CC)c4ccc(F)cn4)nc32)n[nH]1", "High affinity nerve growth factor receptor (Homo sapiens, UniProt P04629)", 8.52],
  ["CNc1ncnc2[nH]cc(C(=O)c3ccc(NC4CCCCC4)nc3Cl)c12", "High affinity nerve growth factor receptor (Homo sapiens, UniProt P04629)", "> 6.00"]
]}

In the following, a different compound is considered.
Task item: GET /values?readout=pIC50&item= CNC(=O)c1ccc(-c2cc(OC3CCOCC3)c3c(C)n[nH]c3c2)cc1N1CCN(C(=O)OC(C)(C)C)CC1
Reply: 8.09

* * *

# IC50 against High affinity nerve growth factor receptor (Homo sapiens), merged from multiple literature sources

Examples with their reported IC50 follow.
{"columns": ["compound", "IC50"],
 "data": [
  ["COCCN1C[C@@H](NC(=O)Nc2c(Br)c(C(=O)NOC)nn2-c2ccccc2)[C@H](c2ccc(F)c(F)c2)C1", "< 100 nM"],
  ["COCCN1C[C@@H](NC(=O)Nc2c(Br)c(C3CCN(S(C)(=O)=O)CC3)nn2-c2ccccc2)[C@H](c2ccc(F)c(F)c2)C1", "< 100 nM"],
  ["CCOc1nn(-c2ccccc2)c(NC(=O)N[C@@H]2CN(CC(=O)NC)C[C@H]2c2ccc(F)c(F)c2)c1C", "100 to 1000 nM"]
]}

Task item: Lab note: need IC50 for COCCN1C[C@@H](NC(=O)Nc2c(C)c(OCC(C)(C)O)nn2-c2ccccc2)[C@H](c2ccc(F)cc2)C1 on High affinity nerve growth factor receptor (Homo sapiens), anyone have it?
Reply: < 100 nM

Task item: Lab note: need IC50 for Cc1cc(NC(=O)N[C@@H]2c3cc(F)c(F)cc3C(C)(C)C[C@H]2O)c(-c2ccccc2)nc1-c1cnn(C)c1 (racemic) on High affinity nerve growth factor receptor (Homo sapiens), anyone have it?
Reply: ≤ 50 nM

Task item: Lab note: need IC50 for CCOc1ccc(Nc2ccc(C(=O)c3c[nH]c4ncnc(OC)c34)c(F)n2)cn1 on High affinity nerve growth factor receptor (Homo sapiens), anyone have it?
Reply: < 100 nM

Task item: Lab note: need IC50 for COc1ccc(Nc2ccc(C(=O)c3c[nH]c4ncnc(NCC5CC5)c34)c(F)n2)cn1 on High affinity nerve growth factor receptor (Homo sapiens), anyone have it?
Reply: < 10 nM

* * *

# IC50 against High affinity nerve growth factor receptor (Homo sapiens, UniProt P04629), merged from multiple literature sources

Examples with their reported IC50 follow.
{"columns": ["compound", "IC50"],
 "data": [
  ["COCCN1C[C@@H](NC(=O)Nc2c(Br)c(-c3ccccc3)nn2-c2ccccc2)[C@H](c2ccc(F)cc2)C1", "< 100 nM"],
  ["Cc1cc(Oc2ccnc3ccc4c(c23)OCCO4)c(F)cc1NC(=O)c1cn(C)c(=O)n(-c2ccc(F)cc2)c1=O", "< 50 nM"],
  ["CN1CCc2occ(C(=O)Nc3ccc4cn[nH]c4c3)c2C1=O", "134 nM"],
  ["Fc1cc(F)cc(CCc2ccc3[nH]nc(/C=C/c4ccccn4)c3c2)c1", "3.9 nM"],
  ["COc1cnc2[nH]cc(Cc3cc(F)c(OCc4nc5ccccc5[nH]4)cc3Cl)c2c1", "≤ 10000 nM"],
  ["CCc1ccc(Nc2ccc(C(=O)c3c[nH]c4ncnc(NCC(F)(F)F)c34)c(F)n2)cn1", "< 100 nM"],
  ["Cc1cc(NC(=O)N[C@@H]2c3ccccc3C(C)(C)C[C@H]2O)c(-c2ccccc2)nc1-c1cn[nH]c1 (racemic)", "≤ 50 nM"]
]}

In the following, a different compound is considered.
Task item: Lab note: need IC50 for COCCN1C[C@@H](NC(=O)Nc2c(C)c(-c3ccn(C)c(=O)c3)nn2-c2ccccc2)[C@H](c2ccc(F)c(F)c2)C1 on High affinity nerve growth factor receptor (Homo sapiens, UniProt P04629), anyone have it?
Reply: < 100 nM

* * *

# IC50 against UniProt P04629, merged from multiple literature sources

Examples with their reported IC50 follow.
{"columns": ["compound", "test_readout", "observed_measurement"],
 "data": [
  ["O=C(Nc1c2c(nn1-c1ccccc1)CCC2)N[C@@H]1CN(CC(F)(F)F)CC1c1cccnc1 (stereo partly drawn)", "IC50", "100 to 1000 nM"],
  ["COCCOc1nc(N2CCN(C(C)=O)CC2)ccc1NC(=O)c1coc2c1C(=O)NC(C)(C)C2", "IC50", "12.2 nM"],
  ["COC(=O)C1(C)CC(=O)c2c(C(=O)Nc3ccc4nn(C)cc4c3)coc2C1 (stereo not drawn)", "IC50", "156 nM"],
  ["CN1CCN(CCn2cc3cc(NC(=O)c4coc5c4C(=O)NCC5)ccc3n2)CC1", "IC50", "18.4 nM"],
  ["COc1ccc(COc2ccc(Cn3c(N)nc4cc(-c5ccccc5)cnc43)cc2OC)cn1", "IC50", "6 nM"],
  ["COc1cc(N2CCN(C(C)=O)CC2)ccc1NC(=O)c1coc2c1C(=O)C1(COC1)OC2", "IC50", "60 nM"],
  ["C(#Cc1n[nH]c2ccc(Cc3ccccc3)cc12)c1ccccn1", "IC50", "100 nM"],
  ["COCCN1C[C@@H](NC(=O)Nc2c(Cl)c(-c3c(C)noc3C)nn2-c2ccccc2)[C@H](c2ccc(F)c(F)c2)C1", "IC50", "< 100 nM"],
  ["COCCN1C[C@@H](NC(=O)Nc2c(C)c([C@H]3C[C@H](O)C3)nn2-c2ccccc2)[C@H](c2cc(F)cc(F)c2)C1", "IC50", "< 100 nM"],
  ["COCCN1C[C@@H](NC(=O)Nc2cc(-c3ccccc3)nn2C)[C@H](c2ccc(F)c(F)c2)C1", "IC50", "< 100 nM"]
]}

Task item: Lab note: need IC50 for Cc1c(C(N)=O)nn(-c2ccccc2)c1NC(=O)Nc1sc(C(F)(F)F)nc1-c1ccccc1 on UniProt P04629, anyone have it?
Reply: 100 to 1000 nM

Task item: Lab note: need IC50 for CCn1cc(Nc2ccc(C(=O)c3c[nH]c4ncnc(C5CC5)c34)c(F)n2)cn1 on UniProt P04629, anyone have it?
Reply: < 100 nM

Task item: Lab note: need IC50 for COc1cc2c(cn1)C(Oc1ccc(Cn3c(N)nc4cc(-c5cnn(C)c5)cnc43)cc1OC)CCC2 (stereo not drawn) on UniProt P04629, anyone have it?
Reply: 39 nM

Task item: Lab note: need IC50 for COc1cc2nccc(Oc3ccc(NC(=O)c4cn(CCCN5CCOCC5)c(=O)n(-c5ccc(F)cc5)c4=O)cc3F)c2c2c1OCCO2 on UniProt P04629, anyone have it?
Reply: 50 to 500 nM

Task item: Lab note: need IC50 for CCOc1nn(-c2ccccc2)c(NC(=O)N[C@@H]2CN(c3c[nH]nc3C(F)(F)F)C[C@H]2c2ccc(F)c(F)c2)c1C on UniProt P04629, anyone have it?
Reply: 100 to 1000 nM

* * *

# IC50 against High affinity nerve growth factor receptor (Homo sapiens), merged from multiple literature sources

Examples with their reported IC50 follow.
{"columns": ["compound", "IC50"],
 "data": [
  ["COCCN1C[C@@H](NC(=O)Nc2cc(-c3ccc(C(=O)OC)cc3)nn2C)[C@H](c2ccc(F)c(F)c2)C1", "< 100 nM"],
  ["CC(C)n1cc(C(=O)Nc2ccc(Oc3ccnc4cc(OCCCN5CCC(C)(N)CC5)c5c(c34)OCCO5)c(F)c2)c(=O)n(-c2ccc(F)cc2)c1=O", "< 50 nM"],
  ["COCCN1C[C@@H](NC(=O)Nc2c(F)c(-c3cnn(C)c3)nn2-c2ccccc2)[C@H](c2cncc(F)c2)C1", "100 to 1000 nM"],
  ["CSCCN1C[C@@H](NC(=O)Nc2c3c(nn2-c2ccccc2)CCC3)[C@H](c2ccccc2)C1 (relative stereo)", "100 to 1000 nM"],
  ["CCOc1nn(-c2ccccc2)c(NC(=O)N[C@@H]2CN(c3cn[nH]c3)C[C@H]2c2ccc(F)c(F)c2)c1C", "< 100 nM"]
]}

Task item: GET /values?readout=IC50&item= Fc1cc(F)cc(Cc2ccc3[nH]nc(/C=C/c4ccc5ccccc5n4)c3c2)c1
Reply: 14.1 nM

Task item: GET /values?readout=IC50&item= NC(=O)c1ccc(-c2cc(OC3CCNCC3)c3c(N)n[nH]c3c2)cc1N1CCN(c2ccccc2)CC1
Reply: 25.3 nM
